measurementDescription: Antitumor activity for L1210 (life prolonging effect, mouse leukemia transplanted intraperitoneally)
Format: in vivo
experimentalContext: mouse, in vivo, ip; numerator of therapeutic index; i.p. total dose; read-out: Maximum tolerable dose
// NB: equality with 10 mg/kg counts as criterion not met; only MTD strictly below is criterion met

Some entries whose results are on file:
| moleculeSmiles | cat |
| --- | --- |
| CC[C@@](O)(C(=O)NCCN(C)C)c1cc2n(c(=O)c1COC(=O)CCSC)Cc1c-2nc2cc(Br)ccc2c1C | criterion not met |
| CCc1c2c(nc3ccc(Br)cc13)-c1cc([C@@](O)(CC)C(=O)NCCN(C)C)c(COC(=O)CCSC)c(=O)n1C2 | criterion met |
| CCc1c2c(nc3ccc(O)cc13)-c1cc([C@@](O)(CC)C(=O)NCCN(C)C)c(COC(=O)c3ccc(F)cc3)c(=O)n1C2 | criterion not met |
| CCOc1ccc2nc3c(c(C)c2c1)Cn1c-3cc([C@@](O)(CC)C(=O)NCCN(C)C)c(COC(=O)CCSC)c1=O | criterion met |
| CCc1c2c(nc3ccc(O)cc13)-c1cc([C@@](O)(CC)C(=O)NCCN(C)C)c(COC(=O)CCSC)c(=O)n1C2 | criterion not met |
| CCCC(=O)OCc1c([C@@](O)(CC)C(=O)NCCN(C)C)cc2n(c1=O)Cc1c-2nc2cc(F)c(C)cc2c1CC | criterion not met |

Q) Is it true that MTD reported for CCc1c2c(nc3cc(F)c(F)cc13)-c1cc([C@@](O)(CC)C(=O)NCCN(C)C)c(COC(=O)c3ccc(OC)cc3)c(=O)n1C2 is less than 10 mg/kg?
A) criterion not met

Q) Now consider CCc1c2c(nc3cc(F)c(C)cc13)-c1cc([C@@](O)(CC)C(=O)NCCN(C)C)c(COC(=O)c3ccc(OC)cc3)c(=O)n1C2 .
A) criterion not met

* * *

measurementDescription: Water solubility
Assay type: physicochemical
assayMetric: solubility

// solved cases for solubility follow
| moleculeSmiles | result |
| --- | --- |
| CCc1c2c(nc3cc(F)ccc13)-c1cc([C@@](O)(CC)C(=O)NCCN(C)C)c(COC(=O)c3ccc(OC)cc3)c(=O)n1C2 | 8 mg/mL |
| CCc1c2c(nc3cc(F)c(C)cc13)-c1cc([C@@](O)(CC)C(=O)NCCN(C)C)c(COC(=O)CCSC)c(=O)n1C2 | > 63 mg/mL |
| CCc1c2c(nc3cc(F)c(C)cc13)-c1cc([C@@](O)(CC)C(=O)NCCN(C)C)c(COC(=O)c3ccc(OC)cc3)c(=O)n1C2 | 9 mg/mL |
| CCC(=O)OCc1c([C@@](O)(CC)C(=O)NCCN(C)C)cc2n(c1=O)Cc1c-2nc2ccc(Cl)cc2c1CC | 29 mg/mL |
| CCc1c2c(nc3cc(F)c(OC)cc13)-c1cc([C@@](O)(CC)C(=O)NCCN(C)C)c(COC(=O)CCSC)c(=O)n1C2 | > 65 mg/mL |

We next turn to a different molecule, shown below.
Q) Which measured solubility value corresponds to CCCC(=O)OCc1c([C@@](O)(CC)C(=O)NCCN(C)C)cc2n(c1=O)Cc1c-2nc2cc(F)c(OC)cc2c1CC ?
A) > 63 mg/mL
